Target: Cholinesterase (Homo sapiens)
Sequence (P06276 whole entry): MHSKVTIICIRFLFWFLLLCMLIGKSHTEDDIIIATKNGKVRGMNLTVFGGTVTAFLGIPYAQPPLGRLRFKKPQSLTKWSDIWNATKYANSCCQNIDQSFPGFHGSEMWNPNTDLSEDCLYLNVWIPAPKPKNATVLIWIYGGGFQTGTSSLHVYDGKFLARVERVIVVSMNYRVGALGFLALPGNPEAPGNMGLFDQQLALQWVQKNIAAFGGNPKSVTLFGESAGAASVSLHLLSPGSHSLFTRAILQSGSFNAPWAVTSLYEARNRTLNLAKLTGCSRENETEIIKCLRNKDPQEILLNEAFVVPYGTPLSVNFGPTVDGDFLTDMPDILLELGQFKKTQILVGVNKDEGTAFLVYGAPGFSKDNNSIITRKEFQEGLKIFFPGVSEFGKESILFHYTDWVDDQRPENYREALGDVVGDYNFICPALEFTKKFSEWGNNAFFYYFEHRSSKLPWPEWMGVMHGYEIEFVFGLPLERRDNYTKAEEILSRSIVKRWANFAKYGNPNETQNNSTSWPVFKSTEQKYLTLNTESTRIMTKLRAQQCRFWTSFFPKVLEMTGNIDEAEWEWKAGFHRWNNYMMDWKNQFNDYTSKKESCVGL
Experiment: Inhibition of recombinant human BuChE expressed in HEK293 cells preincubated for 15 mins
Format: cell-based
outcome-measure: pIC50
Friendly reminder that pIC50 comes from taking -log10 of the concentration in mol/L.

Please give the measured pIC50 for this compound: C#CCNCc1cc2cc(OCCCC3CCN(Cc4ccccc4)CC3)ccc2[nH]1
5.14

Please give the measured pIC50 for this compound: C#CCN(C)Cc1cc2cc(OCCCC3CCN(Cc4ccc(OC(=O)N(C)C)c5ncccc45)CC3)ccc2n1C
5.23

Please give the measured pIC50 for this compound: CCOC(=O)c1cc2cc(OCCCC3CCN(Cc4ccccc4)CC3)ccc2[nH]1
5.01

***
Please give the measured pIC50 for this compound: C#CCN(C)Cc1cc2cc(OCCCC3CCN(Cc4ccccc4)CC3)ccc2[nH]1
5.15

Please give the measured pIC50 for this compound: C#CCN(C)Cc1cc2cc(OCCCC3CCN(Cc4ccccc4)CC3)ccc2n1C
5.48

Please give the measured pIC50 for this compound: C#CCN(C)Cc1ccc(OC(=O)N(C)C)c2ncccc12
5.10

Please give the measured pIC50 for this compound: C=CCNCc1cc2cc(OCCCC3CCN(Cc4ccccc4)CC3)ccc2[nH]1
4.39

Please give the measured pIC50 for this compound: C#CCN(C)Cc1cc2cc(OCCCC3CCN(Cc4ccccc4C)CC3)ccc2n1C
5.31

Please give the measured pIC50 for this compound: OCc1cc2cc(OCCCC3CCN(Cc4ccccc4)CC3)ccc2[nH]1
4.51

* * *

Molecular target: UniProtKB P27338
Test: Inhibition of human MAO-B expressed in baculovirus infected BTI insect cells preincubated for 15 mins
Type: cell-based
Each entry below carries its recorded pIC50.
Friendly reminder that pIC50 comes from taking -log10 of the concentration in mol/L.

Please give the measured pIC50 for this compound: C#CCNCc1cc2cc(OCCCC3CCN(Cc4ccccc4)CC3)ccc2[nH]1
4.47

Please give the measured pIC50 for this compound: C#CCNCc1cc2cc(OCc3ccccc3)ccc2[nH]1
8.39

Please give the measured pIC50 for this compound: C#CCN(C)Cc1cc2cc(OCCCC3CCN(Cc4ccc(OC(=O)N(C)C)c5ncccc45)CC3)ccc2n1C
6.71

***
Please give the measured pIC50 for this compound: C=CCNCc1cc2cc(OCCCC3CCN(Cc4ccccc4)CC3)ccc2[nH]1
4.67

Please give the measured pIC50 for this compound: C#CCN(C)Cc1cc2cc(OCCCC3CCN(Cc4ccccc4)CC3)ccc2[nH]1
4.45

* * *

Assay: Permeability of the compound by PAMPA-BBB method in presence of PBS:ethanol at 70:30 ratio
Type: ADME
Conditions: read-out: permeability
outcome-measure: Papp
Express your answer as a number followed by its unit.

Please give the measured Papp for this molecule: C#CCN(C)Cc1cc2cc(OCCCC3CCN(Cc4ccccc4C)CC3)ccc2n1C
14.4 ×10⁻⁶ cm/s

* * *

Test system: HEK293
Assay: Selectivity ratio of IC50 for recombinant human AChE expressed in HEK293 cells to IC50 for recombinant human BuChE expressed in HEK293 cells
Assay type: cell-based
Strictly below 1 in Ratio IC50: class 1. Otherwise: class 0.

As a guide, the following entries are already answered.
For this molecule, is Ratio IC50 lower than 1? C#CCN(C)Cc1cc2cc(OCCCC3CCN(Cc4ccccc4)CC3)ccc2n1C
class 0

For this molecule, is Ratio IC50 lower than 1? C#CCN(C)Cc1cc2cc(OCCCC3CCN(Cc4ccc(OC(=O)N(C)C)c5ncccc45)CC3)ccc2n1C
class 0

For this molecule, is Ratio IC50 lower than 1? C#CCNCc1cc2cc(OCCCC3CCN(Cc4ccccc4)CC3)ccc2[nH]1
class 1

***
For this molecule, is Ratio IC50 lower than 1? C=CCNCc1cc2cc(OCCCC3CCN(Cc4ccccc4)CC3)ccc2[nH]1
class 1

For this molecule, is Ratio IC50 lower than 1? OCc1cc2cc(OCCCC3CCN(Cc4ccccc4)CC3)ccc2[nH]1
class 1

For this molecule, is Ratio IC50 lower than 1? C#CCN(C)Cc1cc2cc(OCCCC3CCN(Cc4ccccc4)CC3)ccc2[nH]1
class 0

* * *

Molecular target: UniProt P22303
Sequence (P22303 whole entry): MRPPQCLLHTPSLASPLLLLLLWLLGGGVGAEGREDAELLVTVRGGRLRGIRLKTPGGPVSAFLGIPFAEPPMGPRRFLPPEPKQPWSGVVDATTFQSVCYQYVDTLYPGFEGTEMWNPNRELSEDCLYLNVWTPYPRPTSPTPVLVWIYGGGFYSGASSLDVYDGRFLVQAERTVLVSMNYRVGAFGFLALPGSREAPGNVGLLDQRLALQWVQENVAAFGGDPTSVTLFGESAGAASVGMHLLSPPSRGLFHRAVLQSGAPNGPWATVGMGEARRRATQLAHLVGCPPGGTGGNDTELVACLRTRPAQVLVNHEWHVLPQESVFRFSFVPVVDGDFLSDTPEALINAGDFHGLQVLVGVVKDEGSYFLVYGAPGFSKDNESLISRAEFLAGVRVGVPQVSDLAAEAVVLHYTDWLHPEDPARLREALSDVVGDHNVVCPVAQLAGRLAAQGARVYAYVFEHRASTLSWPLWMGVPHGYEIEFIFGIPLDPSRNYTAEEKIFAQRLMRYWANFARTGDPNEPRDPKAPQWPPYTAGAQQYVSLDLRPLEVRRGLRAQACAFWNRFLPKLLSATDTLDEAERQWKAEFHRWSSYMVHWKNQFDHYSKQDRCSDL
Experiment: Inhibition of recombinant human AChE expressed in HEK293 cells preincubated for 15 mins
Strictly below 8 µM in IC50: 1. Otherwise: -1.

For this compound, is IC50 lower than 8 µM? CCOC(=O)c1cc2cc(OCCCC3CCN(Cc4ccccc4)CC3)ccc2[nH]1
-1

For this compound, is IC50 lower than 8 µM? C#CCNCc1cc2cc(OCCCC3CCN(Cc4ccccc4)CC3)ccc2[nH]1
1

For this compound, is IC50 lower than 8 µM? C#CCN(C)Cc1cc2cc(OCCCC3CCN(Cc4ccc(OC(=O)N(C)C)c5ncccc45)CC3)ccc2n1C
-1

For this compound, is IC50 lower than 8 µM? C=CCNCc1cc2cc(OCCCC3CCN(Cc4ccccc4)CC3)ccc2[nH]1
1

For this compound, is IC50 lower than 8 µM? C#CCN(C)Cc1cc2cc(OCCCC3CCN(Cc4ccccc4)CC3)ccc2[nH]1
-1

For this compound, is IC50 lower than 8 µM? C#CCN(C)Cc1cc2cc(OCCCC3CCN(Cc4ccccc4C)CC3)ccc2n1C
1

For this compound, is IC50 lower than 8 µM? OCc1cc2cc(OCCCC3CCN(Cc4ccccc4)CC3)ccc2[nH]1
-1

For this compound, is IC50 lower than 8 µM? C#CCN(C)Cc1ccc(OC(=O)N(C)C)c2ncccc12
1

For this compound, is IC50 lower than 8 µM? C#CCN(C)Cc1cc2cc(OCCCC3CCN(Cc4ccccc4)CC3)ccc2n1C
1

* * *

Target: UniProt P21397
Sequence (P21397 whole entry): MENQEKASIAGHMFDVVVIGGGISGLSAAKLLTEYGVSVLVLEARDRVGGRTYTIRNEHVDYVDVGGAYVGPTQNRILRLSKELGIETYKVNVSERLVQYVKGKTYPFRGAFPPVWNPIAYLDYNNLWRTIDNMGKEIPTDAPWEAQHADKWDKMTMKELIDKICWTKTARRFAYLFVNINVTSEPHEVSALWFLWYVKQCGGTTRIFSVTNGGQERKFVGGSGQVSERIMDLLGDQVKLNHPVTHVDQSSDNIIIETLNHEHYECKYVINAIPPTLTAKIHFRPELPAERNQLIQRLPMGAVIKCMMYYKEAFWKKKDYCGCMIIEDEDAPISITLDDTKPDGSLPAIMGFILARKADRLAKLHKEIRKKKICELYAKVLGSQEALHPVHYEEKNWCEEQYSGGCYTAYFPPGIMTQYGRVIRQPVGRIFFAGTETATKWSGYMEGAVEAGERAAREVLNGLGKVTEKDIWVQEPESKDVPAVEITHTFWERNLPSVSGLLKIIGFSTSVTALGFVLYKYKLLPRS
Assay: Inhibition of human MAO-A expressed in baculovirus infected BTI insect cells preincubated for 15 mins
outcome-measure: log10 IC50 (log10 of the value in µM)
Heads up, the numbers here are log10 of IC50 in µM units.

Some compounds with recorded log10 IC50:
Please give the measured log10 IC50 for this compound: OCc1cc2cc(OCCCC3CCN(Cc4ccccc4)CC3)ccc2[nH]1
0.96

Please give the measured log10 IC50 for this compound: C#CCN(C)Cc1cc2cc(OCCCC3CCN(Cc4ccccc4)CC3)ccc2n1C
-1.24

Please give the measured log10 IC50 for this compound: C#CCN(C)Cc1cc2cc(OCCCC3CCN(Cc4ccc(OC(=O)N(C)C)c5ncccc45)CC3)ccc2n1C
-0.59

Please give the measured log10 IC50 for this compound: C#CCN(C)Cc1cc2cc(OCc3ccc(OC(=O)N(C)C)c4ncccc34)ccc2n1C
2.49

Please give the measured log10 IC50 for this compound: C#CCN(C)Cc1cc2cc(OCCCC3CCN(Cc4ccccc4)CC3)ccc2[nH]1
0.96

Continue with the compound presented below.
Please give the measured log10 IC50 for this compound: C#CCN(C)Cc1cc2cc(OCCCC3CCN(Cc4ccc(OC)c5ncccc45)CC3)ccc2n1C
1.01

* * *

Each entry below carries its recorded pIC50.
Biological target: Amine oxidase [flavin-containing] B (Homo sapiens)
Sequence (P27338 whole entry): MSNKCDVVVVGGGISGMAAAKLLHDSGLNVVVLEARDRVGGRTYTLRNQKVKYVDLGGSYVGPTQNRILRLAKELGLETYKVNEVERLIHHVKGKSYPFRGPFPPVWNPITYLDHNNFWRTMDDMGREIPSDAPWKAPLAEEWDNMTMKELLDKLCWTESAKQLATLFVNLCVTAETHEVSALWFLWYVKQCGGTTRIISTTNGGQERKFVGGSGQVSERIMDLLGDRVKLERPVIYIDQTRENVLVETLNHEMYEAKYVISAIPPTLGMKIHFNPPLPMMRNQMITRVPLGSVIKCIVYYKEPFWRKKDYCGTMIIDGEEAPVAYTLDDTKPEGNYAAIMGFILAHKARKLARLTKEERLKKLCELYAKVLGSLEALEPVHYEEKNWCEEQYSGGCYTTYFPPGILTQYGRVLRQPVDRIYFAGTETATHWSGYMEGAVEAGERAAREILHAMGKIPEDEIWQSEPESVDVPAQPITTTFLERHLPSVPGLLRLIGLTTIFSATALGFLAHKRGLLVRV
Assay: Inhibition of human MAO-B expressed in baculovirus infected BTI insect cells preincubated for 15 mins
Friendly reminder that pIC50 comes from taking -log10 of the concentration in mol/L.

Some molecules with recorded pIC50:
Please give the measured pIC50 for this molecule: CCOC(=O)c1cc2cc(OCCCC3CCN(Cc4ccccc4)CC3)ccc2[nH]1
6.00

Please give the measured pIC50 for this molecule: C#CCN(C)Cc1cc2cc(OCCCC3CCN(Cc4ccccc4)CC3)ccc2n1C
5.92

Please give the measured pIC50 for this molecule: C#CCN(C)Cc1cc2cc(OCCCC3CCN(Cc4ccc(OC)c5ncccc45)CC3)ccc2n1C
5.10

Please give the measured pIC50 for this molecule: C#CCN(C)Cc1cc2cc(OCCCC3CCN(Cc4ccccc4C)CC3)ccc2n1C
6.74

Please give the measured pIC50 for this molecule: OCc1cc2cc(OCCCC3CCN(Cc4ccccc4)CC3)ccc2[nH]1
4.87

Please give the measured pIC50 for this molecule: C#CCN(C)Cc1cc2cc(OCc3ccc(OC(=O)N(C)C)c4ncccc34)ccc2n1C
3.56

***
Please give the measured pIC50 for this molecule: C#CCN(C)Cc1cc2cc(OCc3ccc(OC)c4ncccc34)ccc2[nH]1
3.78
